# Tested target: GST-Dm-Relish (Drosophila melanogaster, UniProt Q94527 99-473)
# Sequence: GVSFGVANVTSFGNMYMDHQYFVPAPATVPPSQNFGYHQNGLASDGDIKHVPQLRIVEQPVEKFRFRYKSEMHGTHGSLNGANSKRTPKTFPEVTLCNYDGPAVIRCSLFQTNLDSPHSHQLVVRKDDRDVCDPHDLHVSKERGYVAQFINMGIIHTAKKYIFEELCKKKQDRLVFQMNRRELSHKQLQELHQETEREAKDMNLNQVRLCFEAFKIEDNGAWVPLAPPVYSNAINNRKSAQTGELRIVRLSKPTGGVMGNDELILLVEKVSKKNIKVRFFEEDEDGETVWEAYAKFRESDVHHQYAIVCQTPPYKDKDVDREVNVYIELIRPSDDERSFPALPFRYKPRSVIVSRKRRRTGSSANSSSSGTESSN
# Method summary: protein-binding microarray (PBM); PBM: ~300 nM protein, 6 mM HEPES pH 7.8, 80 mM KCl, 0.5 mM EDTA, 0.5 mM EGTA, 6% glycerol, 35 ng/ul poly-dIdC, 1% milk, 1 h, room temperature; high values mean tight binding
# Settings: dsDNA, one strand shown
Measured metric: binding signal (z-score)
Report only the number, with the unit z-score understood.

Known binding signal results, listed for orientation:
Retrieve binding signal measured for CCGATTAACATCAGGGGGAGAAATGATGTTAATCGGGTCTTGATTCGCTTGACGCTGCTG and print it.
3.41

Retrieve binding signal measured for CCGATTAACATCAGGGAATTTACTGATGTTAATCGGGTCTTGATTCGCTTGACGCTGCTG and print it.
6.87

More entries:
Retrieve binding signal measured for CCGATTAACATCAATAAAACCCCTGATGTTAATCGGGTCTTGATTCGCTTGACGCTGCTG and print it.
7.35

Retrieve binding signal measured for CCGATTAACATCATAAGCGGGGATGATGTTAATCGGGTCTTGATTCGCTTGACGCTGCTG and print it.
2.26

* * *

# Tested target: GST-Co-NF-kB (Capsaspora owczarzaki, UniProt F1ARL5 200-546)
# Sequence: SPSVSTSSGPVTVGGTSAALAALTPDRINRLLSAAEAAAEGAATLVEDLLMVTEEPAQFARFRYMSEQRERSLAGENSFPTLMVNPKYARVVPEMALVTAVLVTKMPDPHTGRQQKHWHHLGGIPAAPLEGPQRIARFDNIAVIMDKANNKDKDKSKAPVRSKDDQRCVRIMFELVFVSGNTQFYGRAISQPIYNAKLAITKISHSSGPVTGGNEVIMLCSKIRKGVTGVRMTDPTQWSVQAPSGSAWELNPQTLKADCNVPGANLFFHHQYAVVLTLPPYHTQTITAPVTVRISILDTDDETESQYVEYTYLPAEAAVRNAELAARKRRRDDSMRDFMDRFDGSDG
# Method summary: protein-binding microarray (PBM); PBM: ~300 nM protein, 6 mM HEPES pH 7.8, 80 mM KCl, 0.5 mM EDTA, 0.5 mM EGTA, 6% glycerol, 35 ng/ul poly-dIdC, 1% milk, 1 h, room temperature; high values mean tight binding
# Settings: dsDNA, one strand shown
Measured metric: binding signal
The reply should read as a number followed by its unit.

Known binding signal results, listed for orientation:
Retrieve binding signal measured for CCGATTAACATCAACGGATTCCCTGATGTTAATCGGGTCTTGATTCGCTTGACGCTGCTG and print it.
2.89 z-score

Retrieve binding signal measured for CCGATTAACATCAATCTTTCCCCTGATGTTAATCGGGTCTTGATTCGCTTGACGCTGCTG and print it.
8.32 z-score

Retrieve binding signal measured for CCGATTAACATCAGTAATTCCCATGATGTTAATCGGGTCTTGATTCGCTTGACGCTGCTG and print it.
5.42 z-score

Retrieve binding signal measured for CCGATTAACATCACGGGGGGGACTGATGTTAATCGGGTCTTGATTCGCTTGACGCTGCTG and print it.
7.62 z-score

More entries:
Retrieve binding signal measured for CCGATTAACATCAAAGAATCCCCTGATGTTAATCGGGTCTTGATTCGCTTGACGCTGCTG and print it.
4.06 z-score

* * *

# Tested target: GST-Co-NF-kB (Capsaspora owczarzaki, UniProt F1ARL5 200-546)
# Sequence: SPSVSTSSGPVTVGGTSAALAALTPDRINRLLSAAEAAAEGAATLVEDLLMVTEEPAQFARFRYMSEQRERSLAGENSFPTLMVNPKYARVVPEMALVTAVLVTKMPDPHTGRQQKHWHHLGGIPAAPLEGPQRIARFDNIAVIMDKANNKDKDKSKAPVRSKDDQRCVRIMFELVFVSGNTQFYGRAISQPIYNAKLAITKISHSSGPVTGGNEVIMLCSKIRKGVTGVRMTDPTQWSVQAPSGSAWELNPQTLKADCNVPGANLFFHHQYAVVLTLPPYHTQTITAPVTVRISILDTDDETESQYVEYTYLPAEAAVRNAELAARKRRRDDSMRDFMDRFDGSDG
# Method summary: protein-binding microarray (PBM); PBM: ~300 nM protein, 6 mM HEPES pH 7.8, 80 mM KCl, 0.5 mM EDTA, 0.5 mM EGTA, 6% glycerol, 35 ng/ul poly-dIdC, 1% milk, 1 h, room temperature; high values mean tight binding
# Settings: dsDNA, one strand shown
Measured metric: binding signal

Retrieve binding signal measured for CCGATTAACATCAAATTTCCCCCTGATGTTAATCGGGTCTTGATTCGCTTGACGCTGCTG and print it.
12.3 z-score

Retrieve binding signal measured for CCGATTAACATCACCTTTTCCCCTGATGTTAATCGGGTCTTGATTCGCTTGACGCTGCTG and print it.
8.71 z-score

Field: next sequence
Retrieve binding signal measured for CCGATTAACATCAGGGGGATACATGATGTTAATCGGGTCTTGATTCGCTTGACGCTGCTG and print it.
6.27 z-score

* * *

# Tested target: GST-Nv-NF-kB (Cys allele) (Nematostella vectensis, UniProt E5G601 2-411)
# Sequence: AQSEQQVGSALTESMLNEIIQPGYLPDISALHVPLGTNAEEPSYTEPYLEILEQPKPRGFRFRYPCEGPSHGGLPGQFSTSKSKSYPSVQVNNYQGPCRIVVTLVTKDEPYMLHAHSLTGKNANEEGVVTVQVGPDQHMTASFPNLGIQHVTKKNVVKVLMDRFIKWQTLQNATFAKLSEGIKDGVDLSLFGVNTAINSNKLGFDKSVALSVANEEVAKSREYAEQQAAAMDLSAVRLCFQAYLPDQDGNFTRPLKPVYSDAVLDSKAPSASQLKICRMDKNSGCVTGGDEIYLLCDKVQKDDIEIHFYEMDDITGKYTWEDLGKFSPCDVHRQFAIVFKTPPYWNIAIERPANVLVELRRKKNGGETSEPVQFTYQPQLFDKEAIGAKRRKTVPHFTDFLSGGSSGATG
# Method summary: protein-binding microarray (PBM); PBM: ~300 nM protein, 6 mM HEPES pH 7.8, 80 mM KCl, 0.5 mM EDTA, 0.5 mM EGTA, 6% glycerol, 35 ng/ul poly-dIdC, 1% milk, 1 h, room temperature; Ap Aiptasia and Nv Nematostella (sea anemones) / Co Capsaspora / Aq Amphimedon (sponge) / Dm Drosophila / Hu human; RHD is the Rel homology domain; high values mean tight binding
# Settings: dsDNA, one strand shown
Could you label it Y if measured binding signal is 5 z-score or higher, and N otherwise?

I'd appreciate it if you could say whether CCGATTAACATCAATCTTTTCCCTGATGTTAATCGGGTCTTGATTCGCTTGACGCTGCTG has binding signal at least equal to 5 z-score.
N

More entries:
I'd appreciate it if you could say whether CCGATTAACATCACAAAAATCCCTGATGTTAATCGGGTCTTGATTCGCTTGACGCTGCTG has binding signal at least equal to 5 z-score.
Y

I'd appreciate it if you could say whether CCGATTAACATCAGATTTTCCCCTGATGTTAATCGGGTCTTGATTCGCTTGACGCTGCTG has binding signal at least equal to 5 z-score.
Y

I'd appreciate it if you could say whether CCGATTAACATCAGAAACCCCCCTGATGTTAATCGGGTCTTGATTCGCTTGACGCTGCTG has binding signal at least equal to 5 z-score.
Y

I'd appreciate it if you could say whether CCGATTAACATCAGGGAAAAGAATGATGTTAATCGGGTCTTGATTCGCTTGACGCTGCTG has binding signal at least equal to 5 z-score.
N

I'd appreciate it if you could say whether CCGATTAACATCAGGGGGGATACTGATGTTAATCGGGTCTTGATTCGCTTGACGCTGCTG has binding signal at least equal to 5 z-score.
N

I'd appreciate it if you could say whether CCGATTAACATCACGGGATTTACTGATGTTAATCGGGTCTTGATTCGCTTGACGCTGCTG has binding signal at least equal to 5 z-score.
N

I'd appreciate it if you could say whether CCGATTAACATCAGGGGATATTATGATGTTAATCGGGTCTTGATTCGCTTGACGCTGCTG has binding signal at least equal to 5 z-score.
Y

I'd appreciate it if you could say whether CCGATTAACATCAGGGAAATGTATGATGTTAATCGGGTCTTGATTCGCTTGACGCTGCTG has binding signal at least equal to 5 z-score.
N

I'd appreciate it if you could say whether CCGATTAACATCAAACTCCCCCGTGATGTTAATCGGGTCTTGATTCGCTTGACGCTGCTG has binding signal at least equal to 5 z-score.
Y

I'd appreciate it if you could say whether CCGATTAACATCAGGGAGAGCCCTGATGTTAATCGGGTCTTGATTCGCTTGACGCTGCTG has binding signal at least equal to 5 z-score.
N

I'd appreciate it if you could say whether CCGATTAACATCACGTAAACCCCTGATGTTAATCGGGTCTTGATTCGCTTGACGCTGCTG has binding signal at least equal to 5 z-score.
N
